# target.of.assay: T1, human TIGIT protein (human, UniProt Q495A1 22-141, limits assumed)
# T1 construct: Recombinant protein (Genentech) used in ELISA screening and as SPR analyte; also called TIGIT antigen
# T1 sequence: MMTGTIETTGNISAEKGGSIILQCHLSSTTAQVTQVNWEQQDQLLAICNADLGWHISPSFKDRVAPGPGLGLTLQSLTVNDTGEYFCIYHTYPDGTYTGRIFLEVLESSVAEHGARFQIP
# method.summary: SPR, captured mAb
# Excerpt: Briefly, a series S CM5 biosensor chip was activated with N-ethyl-N′-(3-dimethylaminopropyl)-carbodiimide hydrochloride (EDC) and N-hydroxysuccinimide (NHS) reagents according to the supplier's (GE Healthcare Biosciences, Piscataway, N.J.) instructions, and a human antibody capture kit was applied to couple goat anti-human Fc IgGs in order to achieve approximately 10,000 response units (RU) on each flow cell, followed by blocking un-reacted groups with 1M ethanolamine. […]
attribute.measured: koff (s⁻¹)
Supply the numeric figure in s⁻¹, leaving out any unit text.

Consider the reported koff for these binders:
binder: h7E7.L1H3 (antibody, V domains shown, VH: I48M against h7E7.L1H1; FR/HVR pieces) VH: EVQLVQSGAEVKKPGASVKVSCKASGYTFTEYSIYWVRQAPGQRLEIMGRIDPKNGRTYYVDKFKNRATLTADTSASTAYMELSSLRSEDTAVYFCTRIYGFYFDFWGQGTLVTVSS VL: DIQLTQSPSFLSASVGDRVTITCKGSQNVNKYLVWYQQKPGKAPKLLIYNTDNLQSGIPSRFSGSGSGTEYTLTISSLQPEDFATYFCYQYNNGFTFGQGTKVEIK
display.unit: s⁻¹
koff: 0.00107
//
binder: h7E7.L4H1 (antibody, V domains shown, VL: F87Y against h7E7.L1H1; FR/HVR pieces) VH: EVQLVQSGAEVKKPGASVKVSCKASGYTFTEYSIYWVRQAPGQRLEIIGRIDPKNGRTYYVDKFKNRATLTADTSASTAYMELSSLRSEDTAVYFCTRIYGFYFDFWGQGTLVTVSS VL: DIQLTQSPSFLSASVGDRVTITCKGSQNVNKYLVWYQQKPGKAPKLLIYNTDNLQSGIPSRFSGSGSGTEYTLTISSLQPEDFATYYCYQYNNGFTFGQGTKVEIK
display.unit: s⁻¹
koff: 0.000796

Turning to the following binder.
Request: Could you tell me which koff is on file for h7E7.L1H6 (antibody, V domains shown, VH: A71R against h7E7.L1H1; FR/HVR pieces) VH: EVQLVQSGAEVKKPGASVKVSCKASGYTFTEYSIYWVRQAPGQRLEIIGRIDPKNGRTYYVDKFKNRATLTRDTSASTAYMELSSLRSEDTAVYFCTRIYGFYFDFWGQGTLVTVSS VL: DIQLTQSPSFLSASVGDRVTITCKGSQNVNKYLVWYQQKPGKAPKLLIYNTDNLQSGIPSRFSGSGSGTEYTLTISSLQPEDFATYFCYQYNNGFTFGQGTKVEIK ?
Result: 0.000648
